Could you please report measured IC50 for the items listed next?
# Target System: CaV2.2 (Homo sapiens)
# Sequence (Q00975 whole entry): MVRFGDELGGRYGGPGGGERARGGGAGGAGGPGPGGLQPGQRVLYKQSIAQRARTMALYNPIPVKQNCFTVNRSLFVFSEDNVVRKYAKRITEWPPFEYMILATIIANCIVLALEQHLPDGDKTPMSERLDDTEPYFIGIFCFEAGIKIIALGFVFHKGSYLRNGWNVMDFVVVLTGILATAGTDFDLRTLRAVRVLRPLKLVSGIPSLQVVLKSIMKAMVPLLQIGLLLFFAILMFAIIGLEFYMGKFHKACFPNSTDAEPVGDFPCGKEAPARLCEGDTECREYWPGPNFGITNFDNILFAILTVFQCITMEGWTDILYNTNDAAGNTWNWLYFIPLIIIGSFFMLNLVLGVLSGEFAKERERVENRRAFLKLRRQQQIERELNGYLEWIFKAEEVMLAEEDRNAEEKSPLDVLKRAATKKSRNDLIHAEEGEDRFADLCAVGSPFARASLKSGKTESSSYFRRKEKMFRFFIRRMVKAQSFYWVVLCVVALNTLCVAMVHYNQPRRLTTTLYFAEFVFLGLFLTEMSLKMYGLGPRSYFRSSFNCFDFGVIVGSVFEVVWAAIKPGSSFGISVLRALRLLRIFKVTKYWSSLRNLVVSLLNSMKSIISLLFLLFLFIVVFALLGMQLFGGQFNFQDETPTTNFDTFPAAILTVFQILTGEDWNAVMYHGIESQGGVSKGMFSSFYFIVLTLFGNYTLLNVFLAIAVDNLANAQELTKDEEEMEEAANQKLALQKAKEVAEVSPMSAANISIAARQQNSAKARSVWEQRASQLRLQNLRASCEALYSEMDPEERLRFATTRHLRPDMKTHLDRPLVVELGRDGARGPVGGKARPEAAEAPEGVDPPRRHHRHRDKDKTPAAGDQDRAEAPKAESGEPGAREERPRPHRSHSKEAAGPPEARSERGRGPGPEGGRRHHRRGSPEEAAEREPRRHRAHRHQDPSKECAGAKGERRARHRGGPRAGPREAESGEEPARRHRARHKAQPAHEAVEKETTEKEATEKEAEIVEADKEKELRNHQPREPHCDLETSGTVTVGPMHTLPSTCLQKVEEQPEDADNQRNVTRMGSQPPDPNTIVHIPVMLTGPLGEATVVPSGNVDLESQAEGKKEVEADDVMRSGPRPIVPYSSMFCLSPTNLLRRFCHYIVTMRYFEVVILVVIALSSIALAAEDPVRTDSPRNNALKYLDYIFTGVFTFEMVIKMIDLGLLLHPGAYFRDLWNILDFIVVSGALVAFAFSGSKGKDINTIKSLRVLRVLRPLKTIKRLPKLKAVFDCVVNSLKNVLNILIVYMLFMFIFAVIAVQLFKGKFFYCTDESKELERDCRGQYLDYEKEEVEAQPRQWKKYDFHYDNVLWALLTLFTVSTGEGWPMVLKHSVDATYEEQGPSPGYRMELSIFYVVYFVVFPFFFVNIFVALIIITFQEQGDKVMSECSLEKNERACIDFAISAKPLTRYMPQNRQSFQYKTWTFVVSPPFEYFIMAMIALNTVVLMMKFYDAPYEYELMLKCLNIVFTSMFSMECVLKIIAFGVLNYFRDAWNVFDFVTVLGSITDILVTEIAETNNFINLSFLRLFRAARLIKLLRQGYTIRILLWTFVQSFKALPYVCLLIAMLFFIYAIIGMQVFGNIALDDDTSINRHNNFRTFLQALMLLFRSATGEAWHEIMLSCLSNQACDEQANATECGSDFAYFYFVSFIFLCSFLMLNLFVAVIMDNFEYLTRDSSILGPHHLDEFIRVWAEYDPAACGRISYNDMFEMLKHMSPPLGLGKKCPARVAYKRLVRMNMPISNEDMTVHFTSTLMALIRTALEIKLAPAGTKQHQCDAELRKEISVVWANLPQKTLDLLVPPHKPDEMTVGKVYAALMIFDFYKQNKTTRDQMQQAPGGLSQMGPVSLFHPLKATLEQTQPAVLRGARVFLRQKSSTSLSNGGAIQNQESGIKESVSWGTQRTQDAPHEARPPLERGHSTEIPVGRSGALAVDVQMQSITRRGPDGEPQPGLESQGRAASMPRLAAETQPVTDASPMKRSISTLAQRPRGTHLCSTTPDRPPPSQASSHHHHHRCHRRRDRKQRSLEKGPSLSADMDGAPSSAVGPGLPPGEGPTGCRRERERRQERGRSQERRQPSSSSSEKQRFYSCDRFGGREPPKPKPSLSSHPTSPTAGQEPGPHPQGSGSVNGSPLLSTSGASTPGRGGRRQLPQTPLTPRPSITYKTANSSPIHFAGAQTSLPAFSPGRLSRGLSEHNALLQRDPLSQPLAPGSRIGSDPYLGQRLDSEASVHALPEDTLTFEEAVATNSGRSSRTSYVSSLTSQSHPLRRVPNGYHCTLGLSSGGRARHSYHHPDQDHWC
# Sequence (P54284 whole entry partner): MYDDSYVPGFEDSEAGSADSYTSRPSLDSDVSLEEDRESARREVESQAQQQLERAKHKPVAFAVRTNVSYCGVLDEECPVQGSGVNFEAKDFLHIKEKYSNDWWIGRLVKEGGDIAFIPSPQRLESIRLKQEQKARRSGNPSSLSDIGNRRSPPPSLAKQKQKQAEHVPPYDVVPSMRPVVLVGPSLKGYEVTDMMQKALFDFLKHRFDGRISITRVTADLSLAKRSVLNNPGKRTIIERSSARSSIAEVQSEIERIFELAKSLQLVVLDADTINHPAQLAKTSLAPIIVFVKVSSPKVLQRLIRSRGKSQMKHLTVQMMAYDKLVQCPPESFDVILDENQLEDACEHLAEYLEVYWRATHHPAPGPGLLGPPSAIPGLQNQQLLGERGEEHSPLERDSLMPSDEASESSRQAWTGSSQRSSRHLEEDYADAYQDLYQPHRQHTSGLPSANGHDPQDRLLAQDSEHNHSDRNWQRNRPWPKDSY
# Sequence (P54289 25-956 partner limits assumed): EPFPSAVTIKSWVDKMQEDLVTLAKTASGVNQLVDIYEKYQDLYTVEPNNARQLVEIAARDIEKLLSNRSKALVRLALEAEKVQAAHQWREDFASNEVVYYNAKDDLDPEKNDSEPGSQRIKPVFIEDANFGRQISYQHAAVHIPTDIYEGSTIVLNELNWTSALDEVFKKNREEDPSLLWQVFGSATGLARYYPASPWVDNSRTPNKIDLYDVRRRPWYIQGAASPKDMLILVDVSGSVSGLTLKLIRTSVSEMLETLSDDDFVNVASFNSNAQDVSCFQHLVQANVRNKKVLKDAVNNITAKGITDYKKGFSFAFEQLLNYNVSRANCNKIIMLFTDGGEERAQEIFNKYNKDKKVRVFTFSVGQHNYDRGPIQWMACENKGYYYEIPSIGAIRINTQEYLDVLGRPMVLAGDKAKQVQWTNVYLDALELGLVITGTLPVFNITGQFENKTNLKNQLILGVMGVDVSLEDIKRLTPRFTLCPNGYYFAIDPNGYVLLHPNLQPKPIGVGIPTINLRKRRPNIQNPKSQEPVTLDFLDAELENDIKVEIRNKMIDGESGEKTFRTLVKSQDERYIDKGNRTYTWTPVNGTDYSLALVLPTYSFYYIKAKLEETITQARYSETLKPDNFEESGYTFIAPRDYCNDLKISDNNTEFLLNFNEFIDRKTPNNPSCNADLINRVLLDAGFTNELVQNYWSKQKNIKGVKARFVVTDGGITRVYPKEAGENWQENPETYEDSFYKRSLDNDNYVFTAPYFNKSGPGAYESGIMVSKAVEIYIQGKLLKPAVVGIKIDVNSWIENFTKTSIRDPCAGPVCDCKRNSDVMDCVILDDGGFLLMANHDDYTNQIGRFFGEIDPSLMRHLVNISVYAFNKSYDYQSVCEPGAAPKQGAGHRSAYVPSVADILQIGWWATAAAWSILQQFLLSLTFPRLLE
# Sequence (P54289 957-1103 partner limits assumed): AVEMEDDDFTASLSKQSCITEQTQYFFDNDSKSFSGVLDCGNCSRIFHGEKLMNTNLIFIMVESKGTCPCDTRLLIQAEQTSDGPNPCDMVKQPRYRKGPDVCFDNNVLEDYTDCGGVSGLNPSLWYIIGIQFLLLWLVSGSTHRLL
# Protocol Text: VIPR optical membrane potential assay with electrical stimulation, CaV2.2
# Run Parameters: Table 9, CaV 2.2 receptors

>  <Smiles Entry>
CC(C)N(Cc1ccc(C(C)(C)C)cc1)C(=O)c1cnc(N2CCOCC2)nc1-c1ccccc1F

>  <IC50>
< 2 µM

$$$$

Please state, for each entry, its recorded IC50.
1. N#Cc1ccc(-c2nc(N3CCOCC3)ncc2C(=O)NCc2ccccc2C(F)(F)F)cc1
2. Cc1cccc(CN(C(=O)c2c(C)nc(N3CCOCC3)nc2-c2ccccc2F)C2CC2)c1
3. O=C(NC1CCCC1)c1cnc(N2CCOCC2)nc1-c1ccccc1F
4. CC(C)N(C(=O)c1cnc(N2CCCCC2)nc1-c1ccccc1F)c1cccc(C(C)(C)C)c1
5. Cc1cccc(-c2nc(N3CCOCC3)ncc2C(=O)N(Cc2ccccc2)C(C)C)c1

Response:
["> 10 µM", "2 to 10 µM", "> 10 µM", "> 10 µM", "> 10 µM"]

Please state, for each entry, its recorded IC50.
1. CC(C)N(Cc1ccccc1)C(=O)c1cnc(N2CCOCC2)nc1-c1ccc(F)c(F)c1
2. CC(C)N(C(=O)c1cnc(N2CCCCC2)nc1-c1ccccc1F)c1cccc2ccccc12

Response:
> 10 µM
> 10 µM
